Read-out: Transforming Growth Factor (TGFA), TGFA (gene 7039)
Assay Details: LTEA_HepaRG_TGFA: Life Technologies and Expression Analysis (LTEA) Assay for Transforming Growth Factor (TGFA) using HepaRG (AID 2283532)
Experimental Parameters: mRNA level, 48 h; actives raise or lower the signal
Active and inactive are the calls of the source. The calls were made as follows: active = hit-call score of the fitted dose curve at least 0.9, where 1 is the maximum; inactive = score below 0.9.

[
  {
    "Molecule": "CCN(Cc1c(F)cccc1Cl)c1c([N+](=O)[O-])cc(C(F)(F)F)cc1[N+](=O)[O-]",
    "AC50": "inactive"
  },
  {
    "Molecule": "CCCN(CCC)C(=O)SCC",
    "AC50": "inactive"
  },
  {
    "Molecule": "CCC(C)OC(=O)N1CCCCC1CCO (stereo unspecified)",
    "AC50": "inactive"
  },
  {
    "Molecule": "CC(=O)[C@H]1CC[C@H]2[C@@H]3CCC4=CC(=O)CC[C@]4(C)[C@H]3CC[C@]12C",
    "AC50": "33.1 µM (active)"
  },
  {
    "Molecule": "O=C(O)C1(C(=O)Nc2ccc(Cl)cc2Cl)CC1",
    "AC50": "inactive"
  },
  {
    "Molecule": "CC(C)(C)[C@@H](O)[C@@H](Cc1ccc(Cl)cc1)n1cncn1",
    "AC50": "inactive"
  },
  {
    "Molecule": "c1ccc(Nc2ccccc2)cc1",
    "AC50": "inactive"
  },
  {
    "Molecule": "COC(=O)CSc1cc(N=c2sc(=O)n3n2CCCC3)c(F)cc1Cl",
    "AC50": "inactive"
  },
  {
    "Molecule": "C[C@]12CC[C@@H]3c4ccc(O)cc4C[C@@H](CCCCCCCCCS(=O)CCCC(F)(F)C(F)(F)F)[C@H]3[C@@H]1CC[C@@H]2O (stereo partly specified)",
    "AC50": "0.0998 µM (active)"
  },
  {
    "Molecule": "CCOC(=O)c1ccc(O)cc1",
    "AC50": "inactive"
  },
  {
    "Molecule": "CCCCOC(=O)C(C)Oc1ccc(Oc2ccc(C(F)(F)F)cn2)cc1 (stereo unspecified)",
    "AC50": "inactive"
  },
  {
    "Molecule": "COCCO",
    "AC50": "inactive"
  },
  {
    "Molecule": "CCOC(=O)C(C)Oc1ccc(Oc2nc3ccc(Cl)cc3o2)cc1 (stereo unspecified)",
    "AC50": "inactive"
  },
  {
    "Molecule": "O=C(O)c1ccccc1",
    "AC50": "inactive"
  },
  {
    "Molecule": "CCOC(=O)NCCOc1ccc(Oc2ccccc2)cc1",
    "AC50": "78.6 µM (active)"
  },
  {
    "Molecule": "CCCCCCC(C)OC(=O)COc1nc(F)c(Cl)c(N)c1Cl (stereo unspecified)",
    "AC50": "inactive"
  }
]
